molecular target: OGG1 (Homo sapiens (Human)); assay: OGG1 inhibitor assay with fluorogenic OGR1 probe (base excision, initial rates); type: biochemical; settings: 200 nM compound; ratio of initial rate slope (first 12 min) to no-compound control
Sequence (O15527 whole entry): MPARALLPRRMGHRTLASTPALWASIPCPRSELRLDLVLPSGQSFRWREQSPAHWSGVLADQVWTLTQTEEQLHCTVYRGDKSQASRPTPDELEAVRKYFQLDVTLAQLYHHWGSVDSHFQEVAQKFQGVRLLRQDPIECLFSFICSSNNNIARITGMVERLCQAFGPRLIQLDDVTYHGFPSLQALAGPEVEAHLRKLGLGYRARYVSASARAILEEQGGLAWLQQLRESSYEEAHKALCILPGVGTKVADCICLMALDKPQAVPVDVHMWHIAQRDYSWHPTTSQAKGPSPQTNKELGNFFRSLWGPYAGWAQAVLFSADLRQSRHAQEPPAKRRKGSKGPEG
Measured Enzyme activity, % of control at 200 nM, listed per entry.
READOUT: Enzyme activity, % of control at 200 nM

COc1ccc(-c2ccc(S(=O)(=O)Nc3ccc4c(c3)N(C(=O)C3CC3)CCC4)cc2)cc1 | 79 % of control
O=C(C1CC1)N1CCCc2ccc(NS(=O)(=O)c3ccc(-c4ccccc4)cc3)cc21 | 90 ± 6.2 % of control
O=C(C1CC1)N1CCCc2ccc(NS(=O)(=O)c3ccc(-n4cccn4)cc3)cc21 | 81 % of control
O=C(C1CC1)N1CCCc2ccc(NS(=O)(=O)c3ccc(C4CCCCC4)cc3)cc21 | 87 % of control
O=C(C1CC1)N1CCCc2ccc(NS(=O)(=O)c3ccc(Oc4ccccc4)cc3)cc21 | ≥100 % of control
CSc1ccc(S(=O)(=O)Nc2ccc3c(c2)N(C(=O)C2CC2)CCC3)cc1 | 75 % of control
COc1cccc(-c2ccc(S(=O)(=O)Nc3ccc4c(c3)N(C(=O)C3CC3)CCC4)cc2)c1 | 67 % of control
O=C(C1CC1)N1CCCc2ccc(NS(=O)(=O)c3ccc(N4CCOCC4)cc3)cc21 | 84 % of control
CCOc1ccc(S(=O)(=O)Nc2ccc3c(c2)N(C(=O)C2CC2)CCC3)cc1 | 82 ± 12 % of control
CCOc1ccc(S(=O)(=O)N(O)c2ccc3c(c2)N(C(=O)C2CC2)CCC3)cc1 | ≥100 % of control
NC(=O)c1cccc(-c2ccc(S(=O)(=O)Nc3ccc4c(c3)N(C(=O)C3CC3)CCC4)cc2)c1 | 39 ± 2.5 % of control
CCCOc1ccc(S(=O)(=O)Nc2ccc3c(c2)N(C(=O)C2CC2)CCC3)cc1 | 95 % of control
O=C(C1CC1)N1CCCc2ccc(NS(=O)(=O)c3ccc(-c4cccnc4)cc3)cc21 | 61 ± 1.3 % of control
CCNc1ccc(S(=O)(=O)Nc2ccc3c(c2)N(C(=O)C2CC2)CCC3)cc1 | ≥100 % of control
CN(C)c1cccc(-c2ccc(S(=O)(=O)Nc3ccc4c(c3)N(C(=O)C3CC3)CCC4)cc2)c1 | 70 % of control
O=C(C1CC1)N1CCCc2ccc(NS(=O)(=O)c3ccc(-c4ccc(C(F)(F)F)cc4)cc3)cc21 | 97 % of control
CNC(=O)c1cccc(-c2ccc(S(=O)(=O)Nc3ccc4c(c3)N(C(=O)C3CC3)CCC4)cc2)c1 | 48 % of control
CCCc1ccc(S(=O)(=O)Nc2ccc3c(c2)N(C(=O)C2CC2)CCC3)cc1 | 74 % of control

====

Biological target: OGG1 (Homo sapiens (Human))
Assay: OGG1 inhibitor assay with fluorogenic OGR1 probe (base excision, initial rates)
Assay type: biochemical
Conditions: 20 μM compound; ratio of initial rate slope (first 12 min) to no-compound control
Method: Methods: Synthesized compounds and hOGG1 (100 nM) were incubated in NEBuffer 4 (1×) with BSA (1×) at 37° C. (15 min) in 100 μL reaction volumes in a black 96-well plate. […] Fluorescence at 460 nm was measured on a Thermo Fluoroskan Ascent FL fluorescence plate reader (λex=355 nm). The slope of initial rate (12 min) was calculated, and % of control was used for inhibition activity. […]
READOUT: Enzyme activity, % of control at 20 μM

O=C(C1CC1)N1CCCc2ccc(NS(=O)(=O)c3ccc(-n4cccn4)cc3)cc21 [Compound 33] | 14 ± 3.2 % of control
CCOc1ccc(S(=O)(=O)Nc2ccc3c(c2)CN(C(=O)C2CC2)CC3)cc1 [Compound 17] | 88 % of control
CCOc1ccc(S(=O)(=O)Nc2cc3c(cc2OC)CCCN3C(=O)C2CC2)cc1 [Compound 16] | 93 % of control
CCOc1ccc(S(=O)(=O)Nc2ccc3c(c2)N(C(=O)CC)CC3)cc1 [Compound 13] | ≥100 % of control
CCOc1ccc(S(=O)(=O)Nc2ccc3c(c2)N(C(=O)Cc2ccccc2)CCC3)cc1 [Compound 3] | 79 % of control
CCCc1ccc(S(=O)(=O)Nc2ccc3c(c2)N(C(=O)C2CC2)CCC3)cc1 [Compound 23] | 14 % of control
CCOc1ccc(S(=O)(=O)N(C)c2ccc3c(c2)N(C(=O)C2CC2)CCC3)cc1 [Compound 19] | 79 % of control
CCOc1ccc(S(=O)(=O)Nc2ccc3c(c2)N(C(=O)C2CC2)CCC3)cc1C [Compound 27] | 22 % of control
CCOc1ccc(S(=O)(=O)Nc2ccc3c(c2)N(C(=O)CC)CCC3)cc1 [Compound 2] | 3.7 ± 0.83 % of control
CCOc1ccc(S(=O)(=O)N(O)c2ccc3c(c2)N(C(=O)C2CC2)CCC3)cc1 [Compound 18] | 21 % of control
CSc1ccc(S(=O)(=O)Nc2ccc3c(c2)N(C(=O)C2CC2)CCC3)cc1 [Compound 26] | 3.6 % of control
CCOc1ccc(S(=O)(=O)Nc2cccc(NC(C)=O)c2)cc1 [Compound 12] | 70 % of control
CCC(=O)N1CCCc2ccc(NS(=O)(=O)CC)cc21 [Compound 22] | 74 % of control
CCOc1ccc(S(=O)(=O)Nc2ccc3c(c2)N(C(=O)C2CC2)CCCC3)cc1 [Compound 14] | 35 % of control
CCNc1ccc(S(=O)(=O)Nc2ccc3c(c2)N(C(=O)C2CC2)CCC3)cc1 [Compound 25] | 10 % of control
CCOc1ccc(NC(=O)Nc2ccc3c(c2)N(C(=O)C2CC2)CCC3)cc1 [Compound 21] | ≥100 % of control
CCOc1ccc(S(=O)(=O)Nc2ccc3c(c2)N(C(=O)C2CC2)CCO3)cc1 [Compound 15] | 41 % of control
CCOc1ccc(C(=O)Nc2ccc3c(c2)N(C(=O)C2CC2)CCC3)cc1 [Compound 20] | ≥100 % of control
O=C(C1CC1)N1CCCc2ccc(NS(=O)(=O)c3ccc(Oc4ccccc4)cc3)cc21 [Compound 28] | 8.3 % of control
NNC(=O)c1sc2cccc(Cl)c2c1Cl [Compound O8, reference compound] | 45 % of control
CCOc1ccc(S(=O)(=O)Nc2ccc3c(c2)N(CC2CC2)CCC3)cc1 [Compound 11] | 83 % of control
O=C(C1CC1)N1CCCc2ccc(NS(=O)(=O)c3ccc4oc5ccccc5c4c3)cc21 [Compound 29] | 71 % of control
CCOc1ccc(S(=O)(=O)Nc2ccc3c(c2)N(C(=O)C(C)C)CCC3)cc1 [Compound 5] | 52 % of control
CCOc1ccc(S(=O)(=O)Nc2ccc3c(c2)N(C(=O)C2CC2)CCC3)cc1 [Compound 7] | 5.8 ± 1.9 % of control
O=C(C1CC1)N1CCCc2ccc(NS(=O)(=O)c3ccc(-c4cccnc4)cc3)cc21 [Compound 34] | 2.0 % of control
CCOc1ccc(S(=O)(=O)Nc2ccc3c(c2)N(S(=O)(=O)CC)CCC3)cc1 [Compound 9] | 92 % of control
CCOc1ccc(S(=O)(=O)Nc2ccc3c(c2)N(C(=O)NC2CC2)CCC3)cc1 [Compound 10] | 77 % of control
CCOc1ccc(S(=O)(=O)Nc2ccc3c(c2)N(C(=O)CCOC)CCC3)cc1 [Compound 4] | 51 % of control
CCOc1ccc(S(=O)(=O)Nc2ccc3c(c2)N(C(=O)C(C)(C)C)CCC3)cc1 [Compound 6] | ≥100 % of control
CCOc1ccc(S(=O)(=O)Nc2ccc3c(c2)N(C(=O)C2CCC2)CCC3)cc1 [Compound 8] | 33 % of control
